The reported measurements were obtained from patent US20150086555A1.

Items are presented alongside their recorded Trimeric HA Binding: RLU.
- experimental-system: recombinant soluble homotrimeric HA of A/Netherlands/219/03 (H7N7) (Influenza A virus A/Netherlands/219/03(H7N7))
- protocol-text: HA microarray, BCC supernatant
- condition-label: remark: other sources report otherwise
Provide only the numeric value, understood in RLU.

Sample answers from the record:
| binder | measured-result |
| --- | --- |
| TCN-529 (5297_H01) (antibody, V domains shown) VH: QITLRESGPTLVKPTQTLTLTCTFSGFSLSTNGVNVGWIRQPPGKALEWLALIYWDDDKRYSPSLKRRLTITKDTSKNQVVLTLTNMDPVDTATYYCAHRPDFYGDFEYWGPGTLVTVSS VL: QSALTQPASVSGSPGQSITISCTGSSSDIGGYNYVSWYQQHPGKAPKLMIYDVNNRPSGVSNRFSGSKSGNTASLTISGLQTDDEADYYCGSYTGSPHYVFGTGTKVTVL | 1160 |
| TCN-542 (5079_A16) (antibody, V domains shown) VH: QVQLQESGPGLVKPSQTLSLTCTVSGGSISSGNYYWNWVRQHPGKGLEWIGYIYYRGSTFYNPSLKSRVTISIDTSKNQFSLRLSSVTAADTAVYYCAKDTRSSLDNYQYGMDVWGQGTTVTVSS VL: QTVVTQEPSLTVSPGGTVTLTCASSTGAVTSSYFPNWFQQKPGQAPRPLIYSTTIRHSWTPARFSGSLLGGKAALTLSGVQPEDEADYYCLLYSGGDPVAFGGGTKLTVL | 909 |

Please find the next binder below.
Challenge: Consider the binder shown here: TCN-523 (5248_A17) (antibody, V domains shown) VH: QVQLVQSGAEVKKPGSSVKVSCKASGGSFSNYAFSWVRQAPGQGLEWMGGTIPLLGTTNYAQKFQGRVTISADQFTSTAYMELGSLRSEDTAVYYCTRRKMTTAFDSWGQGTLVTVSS VL: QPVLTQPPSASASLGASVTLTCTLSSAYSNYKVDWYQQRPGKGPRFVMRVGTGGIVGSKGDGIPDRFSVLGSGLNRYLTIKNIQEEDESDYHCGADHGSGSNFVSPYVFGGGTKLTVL What is its recorded Trimeric HA Binding: RLU?
Response given: 2340
